# system tested: D5 IgG binding to 5-helix (recombinant gp41 mimetic)
# method notes: D5/5-Helix Competitive Binding Assay (DCBA), peptide constructs
# condition parameters: competition for D5 binding to 5-helix, FRET
No end group written: not given here.
# Lookup of reported IC50 keyed by entry

In the examples that follow, each entry is paired with its recorded IC50.
>>> measured_value("KTA(N51-3B)3: three thiol tagged monomeric N51-3B peptides ligated on trivalent bromide scaffold KTA-Br (QARQLLSGIVQQQNNLLRAIEAQQHALQLTVWGIKQLQARILAVERYLKDQ-NH2; not fully specified (N-terminus); also: trimer: three S-acetylglycolic thiol-tagged N51-3B ligated on trivalent bromide scaffold KTA-Br)")
"38.4 nM"
>>> measured_value("Ac-QIRELISKIVEQINNILRAIEAQQHALQLTVWGIKQLQARILAVERYLKDQ-NH2 (N-terminus assumed) [Peptide N51-2B]")
"> 300 nM"

Now consider the entry below.
Request: Any idea what IC50 was measured for Ac-QARQLLSGIVQQQNNLLRAIEAQQHALQLTVWGIKQLQARILAVERYLKDQ-NH2 (N-terminus assumed) [Peptide N51-3B] ?
Response: > 300 nM
